Source: the supplement of paper PMC10567573

B1: WDFY1 (parent)
chain: FWNIKQMWDTKTLGLRQHHCRKCG

# Variants of: B1
# assay.remarks: protein stability index of a GFP-peptide fusion (GPS, HEK-293T) (PSI 1-6); higher = more stable;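 note: lentivirally expressed fusions sorted by FACS into six bins by GFP to DsRed ratio, PSI derived from sequencing read proportions per bin multiplied by bin number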
# test.conditions: c terminus: a fixed tail appended
property.label: protein stability index
Returns: the value as a bare number; no unit string appended.

Task item: Please give the measured protein stability index for this variant: T12P
Reply: 1.98

Task item: Please give the measured protein stability index for this variant: F1V
Reply: 1.97

Task item: Please give the measured protein stability index for this variant: Q17K
Reply: 1.99

Task item: Please give the measured protein stability index for this variant: R21A
Reply: 2.03
